biological target: EphA3(h) (Homo sapiens); construct: purchased Upstate Biotechnology (Dundee, UK), KinaseProfiler service; assay: KinaseProfiler assay (Upstate), EphA3; format: biochemical; conditions: 1 μM
Sequence (P29320 21-983): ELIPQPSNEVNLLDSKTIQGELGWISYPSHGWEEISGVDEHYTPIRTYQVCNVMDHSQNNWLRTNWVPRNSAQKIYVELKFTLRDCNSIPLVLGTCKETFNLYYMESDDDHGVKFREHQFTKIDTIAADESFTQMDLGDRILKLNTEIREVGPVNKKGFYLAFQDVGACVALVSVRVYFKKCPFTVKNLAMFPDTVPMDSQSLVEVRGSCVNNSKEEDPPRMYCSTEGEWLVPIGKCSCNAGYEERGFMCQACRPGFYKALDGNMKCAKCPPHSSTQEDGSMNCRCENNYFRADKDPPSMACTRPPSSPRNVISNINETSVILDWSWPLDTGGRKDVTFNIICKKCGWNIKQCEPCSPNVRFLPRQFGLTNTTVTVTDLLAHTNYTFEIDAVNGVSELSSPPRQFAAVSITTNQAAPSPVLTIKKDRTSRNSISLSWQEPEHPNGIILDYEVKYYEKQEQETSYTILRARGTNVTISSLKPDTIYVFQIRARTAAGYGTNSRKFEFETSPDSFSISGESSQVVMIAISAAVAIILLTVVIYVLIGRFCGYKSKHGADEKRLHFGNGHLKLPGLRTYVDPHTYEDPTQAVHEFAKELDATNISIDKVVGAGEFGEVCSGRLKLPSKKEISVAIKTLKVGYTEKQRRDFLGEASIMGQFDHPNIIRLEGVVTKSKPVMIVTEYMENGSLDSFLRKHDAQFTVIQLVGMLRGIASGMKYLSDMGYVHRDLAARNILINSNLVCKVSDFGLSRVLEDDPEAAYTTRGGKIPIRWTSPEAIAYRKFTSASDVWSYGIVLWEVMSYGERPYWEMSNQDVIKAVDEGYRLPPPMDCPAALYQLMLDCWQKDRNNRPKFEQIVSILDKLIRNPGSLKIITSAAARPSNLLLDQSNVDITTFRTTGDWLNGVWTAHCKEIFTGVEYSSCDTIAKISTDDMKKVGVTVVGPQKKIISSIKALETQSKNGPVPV
measured endpoint: inhibition at 1 µM
Kindly report the value followed by its unit.

Identify measured inhibition at 1 µM associated with C[C@H](Nc1cncc(Cl)n1)c1cccc(NC(=O)c2cccc(C(F)(F)F)c2)c1
92%

Please give measured inhibition at 1 µM of the following entry: Cc1cccc(C(=O)Nc2ccc(C)c([C@H](C)Nc3cncc(Cl)n3)c2)c1
98%

Let me know recorded inhibition at 1 µM for C[C@H](Nc1cncc(-c2ccc(N3CCN(C)CC3)cc2)n1)c1cccc(NC(=O)c2cccc(C(F)(F)F)c2)c1 , thanks.
99%

Return the recorded inhibition at 1 µM value; entry: C[C@H](Nc1cncc(-c2cccc(N3CCOCC3)c2)n1)c1cccc(NC(=O)c2cccc(C(F)(F)F)c2)c1
94%

Assign inhibition at 1 µM to the following record: Cc1cccc(C(=O)Nc2cccc([C@H](C)Nc3cncc(-c4ccc(N5CCN(C)CC5)cc4)n3)c2)c1
76%

Report inhibition at 1 µM, nothing else, for this compound: Cc1cccc(C(=O)Nc2cccc([C@H](C)Nc3cncc(-c4cccc(N5CCOCC5)c4)n3)c2)c1
91%

Item Cc1cccc(C(=O)Nc2cccc([C@H](C)Nc3cncc(C(N)=O)n3)c2)c1 : provide inhibition at 1 µM
34%

Identify measured inhibition at 1 µM corresponding to Cc1cccc(C(=O)Nc2cccc([C@H](C)Nc3cncc(-n4ccnc4)n3)c2)c1
58%

Using known records, supply inhibition at 1 µM for Cc1cccc(C(=O)Nc2cccc([C@H](C)Nc3cncc(-c4ccc(S(N)(=O)=O)cc4)n3)c2)c1
70%

====

target: Ret(h) (Homo sapiens, UniProt P07949); construct: purchased Upstate Biotechnology (Dundee, UK), KinaseProfiler service; assay: KinaseProfiler assay (Upstate), Ret; type: biochemical; conditions: 1 μM
Sequence (P07949 29-1114): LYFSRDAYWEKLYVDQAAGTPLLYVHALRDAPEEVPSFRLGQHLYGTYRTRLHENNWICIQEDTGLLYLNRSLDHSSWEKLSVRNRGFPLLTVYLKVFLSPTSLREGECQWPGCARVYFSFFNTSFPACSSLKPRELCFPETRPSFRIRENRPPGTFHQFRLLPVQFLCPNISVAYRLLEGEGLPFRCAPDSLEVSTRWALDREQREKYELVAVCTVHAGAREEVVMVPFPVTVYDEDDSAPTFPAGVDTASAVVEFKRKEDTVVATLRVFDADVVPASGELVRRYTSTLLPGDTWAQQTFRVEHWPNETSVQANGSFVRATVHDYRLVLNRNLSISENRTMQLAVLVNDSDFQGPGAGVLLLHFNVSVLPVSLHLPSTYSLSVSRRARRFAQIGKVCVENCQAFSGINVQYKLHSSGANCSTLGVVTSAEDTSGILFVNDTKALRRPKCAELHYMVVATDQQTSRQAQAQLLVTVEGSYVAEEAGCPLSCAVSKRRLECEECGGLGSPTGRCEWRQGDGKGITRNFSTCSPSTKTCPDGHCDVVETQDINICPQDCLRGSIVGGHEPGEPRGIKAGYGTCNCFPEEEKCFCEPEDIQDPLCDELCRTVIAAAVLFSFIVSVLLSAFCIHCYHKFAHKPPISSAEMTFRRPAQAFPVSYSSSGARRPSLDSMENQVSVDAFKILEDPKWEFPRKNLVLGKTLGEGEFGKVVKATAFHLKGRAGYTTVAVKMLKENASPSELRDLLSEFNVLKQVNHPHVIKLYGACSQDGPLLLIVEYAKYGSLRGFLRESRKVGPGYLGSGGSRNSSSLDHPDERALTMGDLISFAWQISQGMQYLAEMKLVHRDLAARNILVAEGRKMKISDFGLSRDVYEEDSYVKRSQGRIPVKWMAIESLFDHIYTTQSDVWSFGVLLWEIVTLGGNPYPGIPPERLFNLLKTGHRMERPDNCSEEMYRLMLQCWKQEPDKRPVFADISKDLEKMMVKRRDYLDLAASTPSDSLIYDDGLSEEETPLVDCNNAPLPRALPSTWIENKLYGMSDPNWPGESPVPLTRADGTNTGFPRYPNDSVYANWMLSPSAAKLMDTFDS
measured endpoint: inhibition at 1 µM (%)
Respond numerically; units are % and should not be typed.

Examples with their reported inhibition at 1 µM follow.
Cc1cccc(C(=O)Nc2cccc([C@H](C)Nc3cncc(-c4cccc(N5CCOCC5)c4)n3)c2)c1 | 92
Cc1cccc(C(=O)Nc2ccc(C)c([C@H](C)Nc3cncc(Cl)n3)c2)c1 | 95
C[C@H](Nc1cncc(-c2ccc(N3CCN(C)CC3)cc2)n1)c1cccc(NC(=O)c2cccc(C(F)(F)F)c2)c1 | 96
C[C@H](Nc1cncc(Cl)n1)c1cccc(NC(=O)c2cccc(C(F)(F)F)c2)c1 | 95
Cc1cccc(C(=O)Nc2cccc([C@H](C)Nc3cncc(C(N)=O)n3)c2)c1 | 36

Specify measured inhibition at 1 µM for Cc1cccc(C(=O)Nc2cccc([C@H](C)Nc3cncc(-c4ccc(N5CCN(C)CC5)cc4)n3)c2)c1 .
75

Note down inhibition at 1 µM recorded for Cc1cccc(C(=O)Nc2cccc([C@H](C)Nc3cncc(-n4ccnc4)n3)c2)c1
58

// fetch inhibition at 1 µM given entry C[C@H](Nc1cncc(-c2cccc(N3CCOCC3)c2)n1)c1cccc(NC(=O)c2cccc(C(F)(F)F)c2)c1
96

Report inhibition at 1 µM, nothing else, for this compound: Cc1cccc(C(=O)Nc2cccc([C@H](C)Nc3cncc(-c4ccc(S(N)(=O)=O)cc4)n3)c2)c1
67

====

target: PTK5(h) (Homo sapiens, UniProt P42685); construct: purchased Upstate Biotechnology (Dundee, UK), KinaseProfiler service; assay: KinaseProfiler assay (Upstate), PTK5; format: biochemical; settings: 0.1 μM
Sequence (P42685 whole entry): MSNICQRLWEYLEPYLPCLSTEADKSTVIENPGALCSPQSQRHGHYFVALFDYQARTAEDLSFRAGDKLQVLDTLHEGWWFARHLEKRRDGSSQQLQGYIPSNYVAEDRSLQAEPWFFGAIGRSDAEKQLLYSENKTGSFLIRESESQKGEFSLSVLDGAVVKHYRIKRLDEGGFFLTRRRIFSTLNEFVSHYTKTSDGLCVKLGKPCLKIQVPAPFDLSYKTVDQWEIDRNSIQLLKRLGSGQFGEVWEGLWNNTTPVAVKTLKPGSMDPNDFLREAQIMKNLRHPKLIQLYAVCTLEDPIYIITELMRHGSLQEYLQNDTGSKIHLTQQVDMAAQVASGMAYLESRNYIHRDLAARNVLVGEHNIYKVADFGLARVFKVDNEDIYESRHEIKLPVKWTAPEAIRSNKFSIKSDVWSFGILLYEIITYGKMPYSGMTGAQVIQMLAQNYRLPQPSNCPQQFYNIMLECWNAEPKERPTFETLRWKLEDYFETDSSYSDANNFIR
measured endpoint: inhibition at 0.1 µM
Note: a bare number is incomplete; add the unit.

Please report the measured inhibition at 0.1 µM for C[C@H](Nc1cncc(Cl)n1)c1cccc(NC(=O)c2cccc(C(F)(F)F)c2)c1
98%

Indicate the recorded inhibition at 0.1 µM value for this compound: Cc1cccc(C(=O)Nc2cccc([C@H](C)Nc3cncc(-c4ccc(S(N)(=O)=O)cc4)n3)c2)c1
91%

Consider the compound C[C@H](Nc1cncc(-c2ccc(N3CCN(C)CC3)cc2)n1)c1cccc(NC(=O)c2cccc(C(F)(F)F)c2)c1 . State its measured inhibition at 0.1 µM.
99%

Report measured inhibition at 0.1 µM; entry is Cc1cccc(C(=O)Nc2cccc([C@H](C)Nc3cncc(-c4ccc(N5CCN(C)CC5)cc4)n3)c2)c1
99%

Determine from records and report inhibition at 0.1 µM for C[C@H](Nc1cncc(-c2cccc(N3CCOCC3)c2)n1)c1cccc(NC(=O)c2cccc(C(F)(F)F)c2)c1
95%

Query inhibition at 0.1 µM for Cc1cccc(C(=O)Nc2cccc([C@H](C)Nc3cncc(-n4ccnc4)n3)c2)c1
88%

Assign inhibition at 0.1 µM to the following record: Cc1cccc(C(=O)Nc2cccc([C@H](C)Nc3cncc(C(N)=O)n3)c2)c1
80%

Give the reported inhibition at 0.1 µM for this compound. Cc1cccc(C(=O)Nc2ccc(C)c([C@H](C)Nc3cncc(Cl)n3)c2)c1
100%

Look up and state reported inhibition at 0.1 µM for Cc1cccc(C(=O)Nc2cccc([C@H](C)Nc3cncc(-c4cccc(N5CCOCC5)c4)n3)c2)c1
94%

====

Here we list molecules with their recorded pIC50 when tested on kinase domain of human c-kit (Homo sapiens).
Sequence (P10721 552-976 limits assumed): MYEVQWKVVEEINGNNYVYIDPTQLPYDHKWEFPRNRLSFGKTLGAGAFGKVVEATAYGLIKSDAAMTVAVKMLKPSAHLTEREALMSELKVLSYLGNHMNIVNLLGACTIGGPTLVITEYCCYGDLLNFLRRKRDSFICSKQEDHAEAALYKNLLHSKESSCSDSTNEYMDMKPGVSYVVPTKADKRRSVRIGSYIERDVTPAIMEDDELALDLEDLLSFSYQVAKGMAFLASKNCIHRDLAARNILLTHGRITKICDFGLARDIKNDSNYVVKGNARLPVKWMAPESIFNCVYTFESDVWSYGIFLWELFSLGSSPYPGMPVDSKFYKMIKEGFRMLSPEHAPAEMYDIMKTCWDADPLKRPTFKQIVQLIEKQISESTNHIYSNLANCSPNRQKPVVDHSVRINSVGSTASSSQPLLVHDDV
pIC50: −log10 of the molar value.

// solved cases for pIC50 follow
C[C@H](Nc1cncc(-c2cccc(CO)c2)n1)c1cccc(NC(=O)c2cccc(C(F)(F)F)c2)c1 | > 6.00
COc1cc(-c2cncc(NC(C)c3cccc(NC(=O)c4cccnc4)c3)n2)ccc1O (stereo not drawn) | > 7.00
C[C@H](Nc1cncc(-c2cccc(N3CCOCC3)c2)n1)c1cccc(NC(=O)c2ccc(F)c(Cl)c2)c1 | > 6.00
C[C@H](Nc1cncc(-c2ccc(NS(C)(=O)=O)cc2)n1)c1cccc(NC(=O)c2cccc(C(F)(F)F)c2)c1 | > 6.00
COc1cccc(-c2cncc(N[C@@H](C)c3cccc(NC(=O)c4cncc(C)c4)c3)n2)c1 | > 7.00
C[C@H](Nc1cncc(-c2ccc(N3CCN(C)CC3)cc2)n1)c1cccc(NC(=O)c2cccc(C(F)(F)F)c2)c1 | > 7.00
COc1cc(-c2cncc(N[C@@H](C)c3cccc(NC(=O)c4cncc(C)c4)c3)n2)ccc1O | > 7.00
Cc1ccc(C(=O)Nc2cccc([C@H](C)Nc3cncc(Cl)n3)c2)cc1 | > 6.00

Send back kinase domain of human c-kit (Homo sapiens) pIC50 of Cc1cccc(C(=O)Nc2cccc([C@H](C)Nc3cncc(-c4ccc(S(N)(=O)=O)cc4)n3)c2)c1 only.
> 7.00

Recall the reported pIC50 of Cc1cccc(C(=O)Nc2cccc([C@H](C)Nc3cncc(-c4ccc(N5CCN(C)CC5)cc4)n3)c2)c1 on kinase domain of human c-kit (Homo sapiens) and write it down.
> 7.00

Report measured pIC50 on kinase domain of human c-kit (Homo sapiens); entry: C[C@H](Nc1cncc(-c2ccc(S(C)(=O)=O)cc2)n1)c1cccc(NC(=O)c2cccc(C(F)(F)F)c2)c1
> 6.00

Param request: pIC50 | system kinase domain of human c-kit (Homo sapiens) | item C[C@H](Nc1cncc(-c2cccc(S(C)(=O)=O)c2)n1)c1cccc(NC(=O)c2cccc(C(F)(F)F)c2)c1
> 7.00

Param request: pIC50 | system kinase domain of human c-kit (Homo sapiens) | item Cc1cccc(C(=O)Nc2cccc([C@H](C)Nc3cncc(-n4ccnc4)n3)c2)c1
> 7.00

====

target: Lck(h) (Homo sapiens, UniProt P06239); construct: purchased Upstate Biotechnology (Dundee, UK), KinaseProfiler service; test: KinaseProfiler assay (Upstate), Lck; assay type: biochemical; details: 1 μM
Sequence (P06239 whole entry): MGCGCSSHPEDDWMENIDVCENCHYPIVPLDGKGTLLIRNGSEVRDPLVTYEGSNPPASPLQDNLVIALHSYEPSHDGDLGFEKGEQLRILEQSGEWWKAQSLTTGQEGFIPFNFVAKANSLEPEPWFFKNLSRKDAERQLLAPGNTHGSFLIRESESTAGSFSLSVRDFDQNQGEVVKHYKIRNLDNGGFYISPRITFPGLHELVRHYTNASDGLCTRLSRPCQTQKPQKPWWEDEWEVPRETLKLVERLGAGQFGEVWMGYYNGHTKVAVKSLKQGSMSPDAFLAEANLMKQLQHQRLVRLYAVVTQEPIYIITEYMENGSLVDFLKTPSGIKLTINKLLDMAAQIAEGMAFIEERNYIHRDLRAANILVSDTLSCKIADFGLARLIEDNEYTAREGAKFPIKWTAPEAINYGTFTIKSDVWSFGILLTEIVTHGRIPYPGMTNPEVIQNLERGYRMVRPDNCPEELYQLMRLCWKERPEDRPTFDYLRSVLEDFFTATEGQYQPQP
// reported inhibition at 1 µM per item
Report as: number unit

Cc1cccc(C(=O)Nc2cccc([C@H](C)Nc3cncc(-c4cccc(N5CCOCC5)c4)n3)c2)c1 [Compound 147] | 89%
C[C@H](Nc1cncc(-c2ccc(N3CCN(C)CC3)cc2)n1)c1cccc(NC(=O)c2cccc(C(F)(F)F)c2)c1 [Compound 148] | 97%
Cc1cccc(C(=O)Nc2cccc([C@H](C)Nc3cncc(C(N)=O)n3)c2)c1 [Compound 133] | 16%
Cc1cccc(C(=O)Nc2cccc([C@H](C)Nc3cncc(-c4ccc(S(N)(=O)=O)cc4)n3)c2)c1 [Compound 77] | 84%
C[C@H](Nc1cncc(-c2cccc(N3CCOCC3)c2)n1)c1cccc(NC(=O)c2cccc(C(F)(F)F)c2)c1 [Compound 149] | 95%
Cc1cccc(C(=O)Nc2cccc([C@H](C)Nc3cncc(-c4ccc(N5CCN(C)CC5)cc4)n3)c2)c1 [Compound 129] | 96%

Tell me inhibition at 1 µM reported for Cc1cccc(C(=O)Nc2cccc([C@H](C)Nc3cncc(-n4ccnc4)n3)c2)c1 [Compound 143]
77%

Please supply the value of reported inhibition at 1 µM for the item C[C@H](Nc1cncc(Cl)n1)c1cccc(NC(=O)c2cccc(C(F)(F)F)c2)c1 [Compound 114]
90%

Write down inhibition at 1 µM measured for item Cc1cccc(C(=O)Nc2ccc(C)c([C@H](C)Nc3cncc(Cl)n3)c2)c1 [Compound 168]
98%
